Reference for the values: ChEMBL document CHEMBL4330117

# PROCEDURE_TEXT: Cytotoxicity against mouse primary hepatocytes after 24 hrs by MTT assay
# Format: cell-based, Hepatocyte

{"SMILES_STR": "FC(F)(F)c1ccc(-c2nn(-c3ccccc3)cc2-c2nc3ccccc3[nH]2)cc1", "UNIT_INFO": "µM", "RESULT_COMPARATOR": "=", "CC50 at 24 h": 159}
{"SMILES_STR": "Cc1ccc(-c2nn(-c3ccccc3)cc2-c2nc3ccccc3n2S(=O)(=O)c2ccc(Cl)cc2)cc1", "UNIT_INFO": "µM", "RESULT_COMPARATOR": "=", "CC50 at 24 h": 216}
{"SMILES_STR": "O=S(=O)(c1ccc(F)cc1)n1c(-c2cn(-c3ccccc3)nc2-c2ccc(F)cc2)nc2ccccc21", "UNIT_INFO": "µM", "RESULT_COMPARATOR": "=", "CC50 at 24 h": 174}
{"SMILES_STR": "COc1cc2c(c(OC)c1OC)-c1ccc(OC)c(=O)cc1[C@@H](NC(C)=O)CC2", "UNIT_INFO": "µM", "RESULT_COMPARATOR": "=", "CC50 at 24 h": 153}
{"SMILES_STR": "Cc1ccc(C)c(S(=O)(=O)n2c(-c3cn(-c4ccccc4)nc3-c3ccc(C(F)(F)F)cc3)nc3ccccc32)c1", "UNIT_INFO": "µM", "RESULT_COMPARATOR": "=", "CC50 at 24 h": 132}
{"SMILES_STR": "O=[N+]([O-])c1ccc(S(=O)(=O)n2c(-c3cn(-c4ccccc4)nc3-c3ccc(F)cc3)nc3ccccc32)cc1", "UNIT_INFO": "µM", "RESULT_COMPARATOR": ">", "CC50 at 24 h": 300}
{"SMILES_STR": "Cc1ccc(-c2nn(-c3ccccc3)cc2-c2nc3ccccc3n2S(=O)(=O)c2ccc(C)cc2)cc1", "UNIT_INFO": "µM", "RESULT_COMPARATOR": "=", "CC50 at 24 h": 102}
{"SMILES_STR": "COc1ccc(S(=O)(=O)n2c(-c3cn(-c4ccccc4)nc3-c3ccc(C(F)(F)F)cc3)nc3ccccc32)cc1", "UNIT_INFO": "µM", "RESULT_COMPARATOR": "=", "CC50 at 24 h": 87.4}
{"SMILES_STR": "Cc1ccc(-c2nn(-c3ccccc3)cc2-c2nc3ccccc3n2S(=O)(=O)c2ccc(Br)cc2)cc1", "UNIT_INFO": "µM", "RESULT_COMPARATOR": ">", "CC50 at 24 h": 300}
{"SMILES_STR": "O=S(=O)(c1ccc(Br)cc1)n1c(-c2cn(-c3ccccc3)nc2-c2ccc(C(F)(F)F)cc2)nc2ccccc21", "UNIT_INFO": "µM", "RESULT_COMPARATOR": "=", "CC50 at 24 h": 167}
{"SMILES_STR": "Cc1ccc(-c2nn(-c3ccccc3)cc2-c2nc3ccccc3[nH]2)cc1", "UNIT_INFO": "µM", "RESULT_COMPARATOR": ">", "CC50 at 24 h": 300}
{"SMILES_STR": "O=S(=O)(c1ccc(C(F)(F)F)cc1)n1c(-c2cn(-c3ccccc3)nc2-c2ccc(F)cc2)nc2ccccc21", "UNIT_INFO": "µM", "RESULT_COMPARATOR": "=", "CC50 at 24 h": 55.3}
{"SMILES_STR": "O=S(=O)(c1ccc(F)cc1)n1c(-c2cn(-c3ccccc3)nc2-c2ccc(C(F)(F)F)cc2)nc2ccccc21", "UNIT_INFO": "µM", "RESULT_COMPARATOR": "=", "CC50 at 24 h": 83.3}
{"SMILES_STR": "COc1ccc(S(=O)(=O)n2c(-c3cn(-c4ccccc4)nc3-c3ccc(F)cc3)nc3ccccc32)cc1", "UNIT_INFO": "µM", "RESULT_COMPARATOR": "=", "CC50 at 24 h": 105}
{"SMILES_STR": "O=S(=O)(c1ccc(Cl)cc1)n1c(-c2cn(-c3ccccc3)nc2-c2ccc(C(F)(F)F)cc2)nc2ccccc21", "UNIT_INFO": "µM", "RESULT_COMPARATOR": "=", "CC50 at 24 h": 173}
{"SMILES_STR": "O=[N+]([O-])c1ccc(S(=O)(=O)n2c(-c3cn(-c4ccccc4)nc3-c3ccc(C(F)(F)F)cc3)nc3ccccc32)cc1", "UNIT_INFO": "µM", "RESULT_COMPARATOR": "=", "CC50 at 24 h": 178}
{"SMILES_STR": "Cc1ccc(-c2nn(-c3ccccc3)cc2-c2nc3ccccc3n2S(=O)(=O)c2ccc(F)cc2)cc1", "UNIT_INFO": "µM", "RESULT_COMPARATOR": "=", "CC50 at 24 h": 167}
{"SMILES_STR": "O=S(=O)(c1ccc(Br)cc1)n1c(-c2cn(-c3ccccc3)nc2-c2ccc(F)cc2)nc2ccccc21", "UNIT_INFO": "µM", "RESULT_COMPARATOR": ">", "CC50 at 24 h": 300}
{"SMILES_STR": "O=S(=O)(c1ccccc1)n1c(-c2cn(-c3ccccc3)nc2-c2ccc(F)cc2)nc2ccccc21", "UNIT_INFO": "µM", "RESULT_COMPARATOR": "=", "CC50 at 24 h": 231}
